# pIC50 values compiled below
target: UniProt:O43614; assay: In vitro assay: intracellular calcium measurements (FLIPR), antagonistic activity; conditions: CHO cells expressing human orexin-2 receptor, orexin-A agonist, geometric mean, read-out: IC50 Ox2
Sequence (O43614 whole entry): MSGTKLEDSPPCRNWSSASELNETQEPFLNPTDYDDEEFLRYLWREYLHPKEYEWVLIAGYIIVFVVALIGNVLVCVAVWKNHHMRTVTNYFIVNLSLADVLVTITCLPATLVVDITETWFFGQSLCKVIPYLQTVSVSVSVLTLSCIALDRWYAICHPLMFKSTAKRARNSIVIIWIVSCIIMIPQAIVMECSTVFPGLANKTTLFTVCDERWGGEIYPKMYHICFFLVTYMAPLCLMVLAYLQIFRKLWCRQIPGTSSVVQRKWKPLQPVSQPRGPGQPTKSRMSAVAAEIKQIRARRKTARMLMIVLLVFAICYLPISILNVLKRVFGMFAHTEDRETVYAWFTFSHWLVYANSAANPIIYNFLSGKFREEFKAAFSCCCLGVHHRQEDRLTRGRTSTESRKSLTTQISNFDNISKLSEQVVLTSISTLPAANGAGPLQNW
Keep in mind that pIC50 stands for -log10 of concentration in molar terms.

Cc1cc2nc([C@]3(C)CCCN3C(=O)c3cc(F)ccc3-n3nccn3)[nH]c2cc1C; 7.27
Cc1nc(C(=O)N2CC(F)(F)C[C@H]2c2nc3c(C)cccc3[nH]2)c(-c2ccccc2)s1; 6.88
Cc1ccc(-c2cccc(C#N)c2)c(C(=O)N2CCC[C@@]2(C)c2nc3cc(C(F)(F)F)c(Cl)cc3[nH]2)c1; 7.43

Alright, here's another compound for you.
Form field: reported pIC50 of C=C1C[C@@H](c2nc3cc(Cl)c(C(F)(F)F)cc3[nH]2)N(C(=O)c2cc(OC(F)(F)F)ccc2-n2nccn2)C1
6.99

Where do these numbers come from? They come from patent US9732075B2.
